molecular target: muscarinic receptors (^3 H-oxotremorine-M binding); experiment: ^3 H-oxotremorine-M binding inhibition; details: radioligand ^3 H-oxotremorine-M; read-out: inhibition constant (Ki), binding of ^3 H-oxotremorine-M
QUANTITY: pKi
Scale explanation: pKi corresponds to minus log10 of a concentration expressed in moles per litre.

In: Fill in the blank: the reported pKi of "CCCCCCOc1nsnc1C1=CCCN(C)C1" is ____.
Out: 8.70

The reported numbers originate from patent US6043258A.
